MAGL (Homo sapiens (Human), UniProt Q99685) measurements of IC50, listed per entry.
Sequence (Q99685 whole entry, species assumed): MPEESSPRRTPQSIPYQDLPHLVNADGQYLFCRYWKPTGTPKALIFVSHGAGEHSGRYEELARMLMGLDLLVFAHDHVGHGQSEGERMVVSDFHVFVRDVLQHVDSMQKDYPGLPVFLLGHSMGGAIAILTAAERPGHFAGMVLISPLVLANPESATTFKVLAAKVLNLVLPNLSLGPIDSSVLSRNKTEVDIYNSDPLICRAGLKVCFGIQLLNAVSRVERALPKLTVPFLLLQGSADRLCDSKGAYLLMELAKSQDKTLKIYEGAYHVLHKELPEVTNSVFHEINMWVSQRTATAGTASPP
observationType: IC50 (nM)

COc1cccc(C(=O)N2CCc3c(nn(C)c3-c3nnc(C(F)(F)F)o3)[C@@H]2C)c1Cl
390
C[C@H]1c2nn(C)c(-c3cc(F)cc(F)c3)c2CCN1C(=O)c1cc(F)cc(OCC2CNC(=O)O2)c1Cl (single isomer, unassigned)
1
CC1c2nn(C)c(-c3cc(Cl)cc(C4(NS(C)(=O)=O)CC4)c3)c2CCN1C(=O)c1cc(F)cc(CCc2c[nH]nn2)c1Cl (stereo not shown)
8.15
CC1c2nn(C)c(-c3cc(F)cc(F)c3)c2CCN1C(=O)c1ccnc(OCC2CNC(=O)O2)c1Cl (stereo not shown)
53
C[C@H]1c2nn(C)c(-c3cc(F)cc(F)c3)c2CCN1C(=O)c1ncn(-c2cccnc2O)n1
232

P = COc1cccc(C(=O)N2CCc3c(nn(C)c3-c3cncc(CC(N)=O)c3)[C@@H]2C)c1Cl
Q = C[C@H]1c2nn(C)c(-c3cncc(C(F)(F)F)n3)c2CCN1C(=O)c1cc(F)cc(-c2c[nH]c(C#N)c2)c1Cl
Q) Lab note: check whether P or Q shows the higher recorded IC50. Indicate your choice by writing its label.
A) P
